Below is a list of entries, each paired with its recorded Activity value.
study-target: Glycogen synthase kinase-3 beta (Homo sapiens) (UniProt P49841)
Sequence (P49841 whole entry, looked up, the tested form may be a part): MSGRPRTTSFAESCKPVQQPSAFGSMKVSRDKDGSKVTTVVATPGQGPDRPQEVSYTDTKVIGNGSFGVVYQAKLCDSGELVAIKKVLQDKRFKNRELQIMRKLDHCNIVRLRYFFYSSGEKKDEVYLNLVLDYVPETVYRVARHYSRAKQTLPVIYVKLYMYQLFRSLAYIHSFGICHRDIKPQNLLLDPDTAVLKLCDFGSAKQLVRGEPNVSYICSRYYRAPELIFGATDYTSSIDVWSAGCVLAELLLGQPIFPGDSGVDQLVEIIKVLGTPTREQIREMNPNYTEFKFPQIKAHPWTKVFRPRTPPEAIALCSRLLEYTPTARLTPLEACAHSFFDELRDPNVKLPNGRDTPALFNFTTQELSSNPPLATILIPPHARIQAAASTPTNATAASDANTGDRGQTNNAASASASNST
protocol-notes: Inhibition of human GSK3beta (2 to 420 residues) assessed as enzyme activity at 1 uM using 33P ATP by radioactive filter binding assay
Parameters: scale not given: the % may be the effect or the level left

- structure-smiles-string: "Nc1nccc(-c2c[nH]c3ncccc23)n1"
  study-target: "Glycogen synthase kinase-3 beta (Homo sapiens) (UniProt P49841)"
  Activity: "-77%"
- structure-smiles-string: "CCCCc1cc(-c2c[nH]c3ncccc23)nc(N)n1"
  study-target: "Glycogen synthase kinase-3 beta (Homo sapiens) (UniProt P49841)"
  Activity: "-86%"
- structure-smiles-string: "CCCCc1cc(-c2c[nH]c3ncc(-c4cnn(C5CCNCC5)c4)cc23)nc(N)n1"
  study-target: "Glycogen synthase kinase-3 beta (Homo sapiens) (UniProt P49841)"
  Activity: "-94%"
- structure-smiles-string: "CCc1cc(-c2c[nH]c3ncc(-c4cnn(C5CCNCC5)c4)cc23)nc(N)n1"
  study-target: "Glycogen synthase kinase-3 beta (Homo sapiens) (UniProt P49841)"
  Activity: "-94%"

----------
Catalogue of compounds with associated Activity
study-target: MAP kinase-activated protein kinase 5 (Homo sapiens) (UniProt Q8IW41)
Sequence (Q8IW41 whole entry, the tested form may be a part): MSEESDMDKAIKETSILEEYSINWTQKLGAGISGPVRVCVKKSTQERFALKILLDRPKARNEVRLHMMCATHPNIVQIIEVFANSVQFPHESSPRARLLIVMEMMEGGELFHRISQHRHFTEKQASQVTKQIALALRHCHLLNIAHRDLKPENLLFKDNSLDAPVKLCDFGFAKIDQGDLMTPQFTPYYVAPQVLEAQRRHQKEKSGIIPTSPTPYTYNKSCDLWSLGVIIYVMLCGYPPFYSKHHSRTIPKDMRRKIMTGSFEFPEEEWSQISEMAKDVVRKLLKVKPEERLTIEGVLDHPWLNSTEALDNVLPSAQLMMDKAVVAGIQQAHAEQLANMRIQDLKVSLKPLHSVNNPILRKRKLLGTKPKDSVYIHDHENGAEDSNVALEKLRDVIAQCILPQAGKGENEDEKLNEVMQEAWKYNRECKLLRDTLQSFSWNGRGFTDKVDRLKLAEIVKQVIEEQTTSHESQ
protocol-notes: Inhibition of human PRAK (1 to 471 residues) assessed as enzyme activity at 1 uM using 33P ATP by radioactive filter binding assay
Design: scale not given: the % may be the effect or the level left

- structure-smiles-string: "Nc1nccc(-c2c[nH]c3ncccc23)n1"
  unit-abbrev: "%"
  Activity: -17
- structure-smiles-string: "CCCCc1cc(-c2c[nH]c3ncc(-c4cnn(C5CCNCC5)c4)cc23)nc(N)n1"
  unit-abbrev: "%"
  Activity: -10
- structure-smiles-string: "CCc1cc(-c2c[nH]c3ncc(-c4cnn(C5CCNCC5)c4)cc23)nc(N)n1"
  unit-abbrev: "%"
  Activity: 4
- structure-smiles-string: "CCCCc1cc(-c2c[nH]c3ncccc23)nc(N)n1"
  unit-abbrev: "%"
  Activity: 2

----------
study-target: UniProt Q15746
Sequence (Q15746 whole entry, the tested form may be a part): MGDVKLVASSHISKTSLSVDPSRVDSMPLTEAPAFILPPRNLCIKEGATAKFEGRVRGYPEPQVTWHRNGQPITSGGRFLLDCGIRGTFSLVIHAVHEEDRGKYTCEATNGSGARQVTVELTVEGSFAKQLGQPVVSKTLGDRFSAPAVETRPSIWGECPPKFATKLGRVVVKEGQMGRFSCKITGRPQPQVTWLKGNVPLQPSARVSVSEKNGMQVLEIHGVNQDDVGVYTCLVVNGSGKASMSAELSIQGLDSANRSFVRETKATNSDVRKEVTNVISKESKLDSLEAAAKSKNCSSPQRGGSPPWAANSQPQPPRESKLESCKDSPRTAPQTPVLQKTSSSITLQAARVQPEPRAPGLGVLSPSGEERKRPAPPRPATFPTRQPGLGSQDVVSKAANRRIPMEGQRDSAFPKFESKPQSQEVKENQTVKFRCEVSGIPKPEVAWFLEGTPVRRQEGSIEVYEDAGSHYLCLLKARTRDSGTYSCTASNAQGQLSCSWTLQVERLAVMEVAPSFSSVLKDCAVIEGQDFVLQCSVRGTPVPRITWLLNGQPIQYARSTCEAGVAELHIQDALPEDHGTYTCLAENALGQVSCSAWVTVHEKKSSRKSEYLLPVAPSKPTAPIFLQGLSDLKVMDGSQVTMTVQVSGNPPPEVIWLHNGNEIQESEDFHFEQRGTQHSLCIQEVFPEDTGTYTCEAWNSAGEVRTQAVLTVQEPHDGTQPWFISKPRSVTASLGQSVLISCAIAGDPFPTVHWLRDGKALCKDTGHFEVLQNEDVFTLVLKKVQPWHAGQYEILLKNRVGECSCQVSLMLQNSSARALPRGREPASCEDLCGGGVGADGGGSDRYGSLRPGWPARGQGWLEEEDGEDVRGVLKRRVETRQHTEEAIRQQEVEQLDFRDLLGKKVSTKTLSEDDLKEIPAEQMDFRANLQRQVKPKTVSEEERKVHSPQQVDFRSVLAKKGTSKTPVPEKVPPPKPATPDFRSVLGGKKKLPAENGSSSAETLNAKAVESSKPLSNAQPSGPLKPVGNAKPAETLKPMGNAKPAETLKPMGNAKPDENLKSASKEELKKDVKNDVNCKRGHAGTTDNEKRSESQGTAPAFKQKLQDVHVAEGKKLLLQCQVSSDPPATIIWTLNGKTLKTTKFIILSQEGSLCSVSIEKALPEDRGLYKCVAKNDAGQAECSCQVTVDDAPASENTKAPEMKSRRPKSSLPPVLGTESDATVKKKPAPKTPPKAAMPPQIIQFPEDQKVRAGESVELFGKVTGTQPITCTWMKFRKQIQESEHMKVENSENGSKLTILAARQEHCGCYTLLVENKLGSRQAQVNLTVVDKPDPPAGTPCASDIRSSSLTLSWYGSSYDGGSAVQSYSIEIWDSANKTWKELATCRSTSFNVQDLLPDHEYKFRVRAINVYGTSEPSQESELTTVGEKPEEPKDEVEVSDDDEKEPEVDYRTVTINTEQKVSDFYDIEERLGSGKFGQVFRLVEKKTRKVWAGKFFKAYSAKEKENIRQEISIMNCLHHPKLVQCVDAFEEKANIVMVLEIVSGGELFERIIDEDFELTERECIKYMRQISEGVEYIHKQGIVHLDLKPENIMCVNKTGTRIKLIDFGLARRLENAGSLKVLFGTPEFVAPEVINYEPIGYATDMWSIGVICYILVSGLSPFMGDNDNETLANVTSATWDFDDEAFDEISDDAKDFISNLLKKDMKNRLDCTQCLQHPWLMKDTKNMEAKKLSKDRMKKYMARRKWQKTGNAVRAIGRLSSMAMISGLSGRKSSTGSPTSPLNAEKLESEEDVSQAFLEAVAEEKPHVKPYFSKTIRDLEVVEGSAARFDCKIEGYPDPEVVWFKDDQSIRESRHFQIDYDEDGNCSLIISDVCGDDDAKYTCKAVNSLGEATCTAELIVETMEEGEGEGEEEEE
protocol-notes: Inhibition of human smMLCK (475 to 838 residues) assessed as enzyme activity at 1 uM using 33P ATP by radioactive filter binding assay
Set-up: scale not given: the % may be the effect or the level left

- structure-smiles-string: "CCCCc1cc(-c2c[nH]c3ncccc23)nc(N)n1"
  Activity: "-10%"
- structure-smiles-string: "CCc1cc(-c2c[nH]c3ncc(-c4cnn(C5CCNCC5)c4)cc23)nc(N)n1"
  Activity: "-40%"
- structure-smiles-string: "Nc1nccc(-c2c[nH]c3ncccc23)n1"
  Activity: "-35%"
- structure-smiles-string: "CCCCc1cc(-c2c[nH]c3ncc(-c4cnn(C5CCNCC5)c4)cc23)nc(N)n1"
  Activity: "-72%"

----------
# key: entry, value: Activity
study-target: Tyrosine-protein kinase Lck (Homo sapiens)
protocol-notes: Inhibition of human LCK (2 to 509 residues) assessed as enzyme activity at 1 uM using 33P ATP by radioactive filter binding assay
Set-up: scale not given: the % may be the effect or the level left

- structure-smiles-string: "CCCCc1cc(-c2c[nH]c3ncc(-c4cnn(C5CCNCC5)c4)cc23)nc(N)n1"
  Activity: "-99%"
- structure-smiles-string: "Nc1nccc(-c2c[nH]c3ncccc23)n1"
  Activity: "-9%"
- structure-smiles-string: "CCc1cc(-c2c[nH]c3ncc(-c4cnn(C5CCNCC5)c4)cc23)nc(N)n1"
  Activity: "-95%"
- structure-smiles-string: "CCCCc1cc(-c2c[nH]c3ncccc23)nc(N)n1"
  Activity: "-5%"

----------
Measured Activity, listed per entry.
study-target: MAP kinase-interacting serine/threonine-protein kinase 1 (Homo sapiens) (UniProt Q9BUB5)
Sequence (Q9BUB5 whole entry, looked up, the tested form may be a part): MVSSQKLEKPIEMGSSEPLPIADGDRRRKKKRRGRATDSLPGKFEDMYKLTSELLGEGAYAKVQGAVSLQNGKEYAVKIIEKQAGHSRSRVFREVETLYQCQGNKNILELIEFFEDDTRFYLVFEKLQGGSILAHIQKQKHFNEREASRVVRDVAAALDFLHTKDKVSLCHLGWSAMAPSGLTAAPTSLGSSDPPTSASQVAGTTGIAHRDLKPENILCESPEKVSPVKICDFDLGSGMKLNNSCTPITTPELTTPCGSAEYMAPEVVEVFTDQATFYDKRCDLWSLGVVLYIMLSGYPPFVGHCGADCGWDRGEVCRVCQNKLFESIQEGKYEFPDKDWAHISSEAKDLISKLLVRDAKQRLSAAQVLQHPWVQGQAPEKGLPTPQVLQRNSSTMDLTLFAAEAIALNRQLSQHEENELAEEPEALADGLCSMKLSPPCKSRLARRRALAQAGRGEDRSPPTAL
protocol-notes: Inhibition of human MNK1 (2 to 424 residues) assessed as enzyme activity at 1 uM using 33P ATP by radioactive filter binding assay
Parameters: scale not given: the % may be the effect or the level left

- structure-smiles-string: "Nc1nccc(-c2c[nH]c3ncccc23)n1"
  Activity: "-15%"
- structure-smiles-string: "CCc1cc(-c2c[nH]c3ncc(-c4cnn(C5CCNCC5)c4)cc23)nc(N)n1"
  Activity: "-46%"
- structure-smiles-string: "CCCCc1cc(-c2c[nH]c3ncc(-c4cnn(C5CCNCC5)c4)cc23)nc(N)n1"
  Activity: "-59%"
- structure-smiles-string: "CCCCc1cc(-c2c[nH]c3ncccc23)nc(N)n1"
  Activity: "-23%"

----------
Reported Activity by item:
study-target: Eukaryotic elongation factor 2 kinase (Homo sapiens) (UniProt O00418)
protocol-notes: Inhibition of human EF2K (2 to 725 residues) assessed as enzyme activity at 1 uM using 33P ATP by radioactive filter binding assay
Set-up: scale not given: the % may be the effect or the level left
quantity: Activity (%)

- molecule: "Nc1nccc(-c2c[nH]c3ncccc23)n1 [MERIOLIN 1]"
  study-target: "Eukaryotic elongation factor 2 kinase (Homo sapiens) (UniProt O00418)"
  quantity: "Activity"
  result-number: -20
- molecule: "CCc1cc(-c2c[nH]c3ncc(-c4cnn(C5CCNCC5)c4)cc23)nc(N)n1"
  study-target: "Eukaryotic elongation factor 2 kinase (Homo sapiens) (UniProt O00418)"
  quantity: "Activity"
  result-number: 3
- molecule: "CCCCc1cc(-c2c[nH]c3ncccc23)nc(N)n1"
  study-target: "Eukaryotic elongation factor 2 kinase (Homo sapiens) (UniProt O00418)"
  quantity: "Activity"
  result-number: -1
- molecule: "CCCCc1cc(-c2c[nH]c3ncc(-c4cnn(C5CCNCC5)c4)cc23)nc(N)n1"
  study-target: "Eukaryotic elongation factor 2 kinase (Homo sapiens) (UniProt O00418)"
  quantity: "Activity"
  result-number: -31

----------
// Activity lookup, one value per entry
study-target: Inhibitor of nuclear factor kappa-B kinase subunit beta (Homo sapiens) (UniProt O14920)
Sequence (O14920 whole entry, the tested form may be a part): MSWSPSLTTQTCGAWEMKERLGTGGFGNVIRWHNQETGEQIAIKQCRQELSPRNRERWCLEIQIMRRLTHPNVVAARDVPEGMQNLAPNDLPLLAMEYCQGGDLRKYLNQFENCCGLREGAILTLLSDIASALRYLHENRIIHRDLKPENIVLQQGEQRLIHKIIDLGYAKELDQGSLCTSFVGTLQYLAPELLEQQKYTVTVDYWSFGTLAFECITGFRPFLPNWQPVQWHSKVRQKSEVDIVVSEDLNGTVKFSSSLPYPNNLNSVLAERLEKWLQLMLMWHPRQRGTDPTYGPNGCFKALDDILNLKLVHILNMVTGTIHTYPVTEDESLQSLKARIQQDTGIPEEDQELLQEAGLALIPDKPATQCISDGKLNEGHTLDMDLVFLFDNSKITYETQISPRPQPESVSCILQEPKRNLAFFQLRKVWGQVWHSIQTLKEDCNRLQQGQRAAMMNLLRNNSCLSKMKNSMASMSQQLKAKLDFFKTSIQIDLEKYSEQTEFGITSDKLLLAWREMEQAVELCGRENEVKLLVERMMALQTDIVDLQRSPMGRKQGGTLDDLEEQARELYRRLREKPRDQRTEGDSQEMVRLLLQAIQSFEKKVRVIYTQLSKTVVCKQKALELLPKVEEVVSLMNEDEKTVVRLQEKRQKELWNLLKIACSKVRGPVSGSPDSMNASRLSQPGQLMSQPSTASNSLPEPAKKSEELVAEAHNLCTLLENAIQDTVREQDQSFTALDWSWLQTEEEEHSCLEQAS
protocol-notes: Inhibition of human IKKbeta (1 to 736 residues) assessed as enzyme activity at 1 uM using 33P ATP by radioactive filter binding assay
Design: scale not given: the % may be the effect or the level left

- compound: "CCCCc1cc(-c2c[nH]c3ncccc23)nc(N)n1"
  Activity [%]: -27
- compound: "CCc1cc(-c2c[nH]c3ncc(-c4cnn(C5CCNCC5)c4)cc23)nc(N)n1"
  Activity [%]: -46
- compound: "CCCCc1cc(-c2c[nH]c3ncc(-c4cnn(C5CCNCC5)c4)cc23)nc(N)n1"
  Activity [%]: -63
- compound: "Nc1nccc(-c2c[nH]c3ncccc23)n1 [MERIOLIN 1]"
  Activity [%]: -45

----------
The reader will find reported Activity values listed item by item below.
study-target: MAP/microtubule affinity-regulating kinase 3 (Homo sapiens) (UniProt P27448)
Sequence (P27448 whole entry, looked up, the tested form may be a part): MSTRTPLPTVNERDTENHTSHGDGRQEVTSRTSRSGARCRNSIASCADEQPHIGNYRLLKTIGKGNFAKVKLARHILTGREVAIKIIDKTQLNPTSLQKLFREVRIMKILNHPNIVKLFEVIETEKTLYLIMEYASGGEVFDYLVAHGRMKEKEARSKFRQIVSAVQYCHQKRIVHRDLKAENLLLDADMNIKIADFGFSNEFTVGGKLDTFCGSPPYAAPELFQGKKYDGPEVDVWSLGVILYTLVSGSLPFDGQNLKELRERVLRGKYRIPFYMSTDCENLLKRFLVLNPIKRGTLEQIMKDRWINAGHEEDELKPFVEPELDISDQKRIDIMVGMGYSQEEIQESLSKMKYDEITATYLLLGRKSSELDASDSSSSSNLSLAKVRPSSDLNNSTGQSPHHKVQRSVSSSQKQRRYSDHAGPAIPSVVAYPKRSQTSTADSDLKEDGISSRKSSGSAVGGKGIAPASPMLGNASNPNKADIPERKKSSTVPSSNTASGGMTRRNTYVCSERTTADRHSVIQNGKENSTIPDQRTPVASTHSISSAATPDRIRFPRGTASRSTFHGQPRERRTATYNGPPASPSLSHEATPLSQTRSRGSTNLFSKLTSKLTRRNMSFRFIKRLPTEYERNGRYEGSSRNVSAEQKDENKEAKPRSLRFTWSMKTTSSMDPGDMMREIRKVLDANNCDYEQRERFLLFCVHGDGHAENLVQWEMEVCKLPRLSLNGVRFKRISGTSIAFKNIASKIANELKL
protocol-notes: Inhibition of human MARK3 (2 to 729 residues) assessed as enzyme activity at 1 uM using 33P ATP by radioactive filter binding assay
Parameters: scale not given: the % may be the effect or the level left

- structure-smiles-string: "CCCCc1cc(-c2c[nH]c3ncccc23)nc(N)n1"
  study-target: "MAP/microtubule affinity-regulating kinase 3 (Homo sapiens) (UniProt P27448)"
  Activity [%]: -58
- structure-smiles-string: "Nc1nccc(-c2c[nH]c3ncccc23)n1"
  study-target: "MAP/microtubule affinity-regulating kinase 3 (Homo sapiens) (UniProt P27448)"
  Activity [%]: -59
- structure-smiles-string: "CCCCc1cc(-c2c[nH]c3ncc(-c4cnn(C5CCNCC5)c4)cc23)nc(N)n1"
  study-target: "MAP/microtubule affinity-regulating kinase 3 (Homo sapiens) (UniProt P27448)"
  Activity [%]: -95
- structure-smiles-string: "CCc1cc(-c2c[nH]c3ncc(-c4cnn(C5CCNCC5)c4)cc23)nc(N)n1"
  study-target: "MAP/microtubule affinity-regulating kinase 3 (Homo sapiens) (UniProt P27448)"
  Activity [%]: -89

----------
Listed compounds paired with reported Activity
study-target: Mitogen-activated protein kinase 12 (Homo sapiens)
Sequence (whole entry): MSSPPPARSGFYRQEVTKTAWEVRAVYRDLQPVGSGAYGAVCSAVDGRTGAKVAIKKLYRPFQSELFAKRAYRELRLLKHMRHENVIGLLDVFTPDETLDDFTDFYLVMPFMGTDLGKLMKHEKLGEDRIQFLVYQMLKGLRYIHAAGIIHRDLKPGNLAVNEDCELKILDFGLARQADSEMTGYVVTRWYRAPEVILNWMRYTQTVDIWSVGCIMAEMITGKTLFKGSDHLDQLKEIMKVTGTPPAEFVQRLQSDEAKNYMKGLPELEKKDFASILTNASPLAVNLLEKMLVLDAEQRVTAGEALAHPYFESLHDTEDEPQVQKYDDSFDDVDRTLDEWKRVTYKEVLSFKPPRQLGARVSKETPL
protocol-notes: Inhibition of SAPK3 (unknown origin) assessed as enzyme activity at 1 uM using 33P ATP by radioactive filter binding assay
Set-up: scale not given: the % may be the effect or the level left
quantity: Activity (%)

- structure-smiles-string: "CCc1cc(-c2c[nH]c3ncc(-c4cnn(C5CCNCC5)c4)cc23)nc(N)n1"
  result-number: -45
- structure-smiles-string: "CCCCc1cc(-c2c[nH]c3ncccc23)nc(N)n1"
  result-number: -57
- structure-smiles-string: "CCCCc1cc(-c2c[nH]c3ncc(-c4cnn(C5CCNCC5)c4)cc23)nc(N)n1"
  result-number: -42
- structure-smiles-string: "Nc1nccc(-c2c[nH]c3ncccc23)n1"
  result-number: -59
